test system: Wolbachia pipientis; assay: Anti-Wolbachia Cell-Based Screen; assay type: functional; set-up: scale not given: in the data most compounds retested in dose-response had high values; conditions: 5 µM
Hit rate of the full screen: of about 48,000 compounds, about 13,000 (27%) showed an effect of 50% or more. Some of the results follow.
endpoint: Percent Effect (%)
Write down the numeric answer in % and omit the unit.

Previously resolved entries follow.
- CCCc1nc(C(C)(C)NC(=O)c2ccnn2C)no1: 9.786
- CCc1nc(C)c([C@H]2CN(C)C[C@@H]2C(=O)NCCc2cnccn2)[nH]1: -9.925

Qu. Item CCn1c(C)nnc1CN(C)C1CCN(Cc2nccn2C)C1 (stereo not drawn) with Wolbachia pipientis - Percent Effect?
Ans. -10.2

###

test system: Wolbachia pipientis; assay: Anti-Wolbachia Cell-Based Screen; assay type: functional; set-up: scale not given: in the data most compounds retested in dose-response had high values; details: 5 µM
In all, about 48,000 compounds went through this assay and about 13,000 (27%) showed an effect of 50% or more. Some of the results follow.
Collected Percent Effect values appear next to each entry.
Numeric answer only, unit % assumed.

Field: example entries. Status: answers known.
- Cn1nnnc1SCCNC(=O)c1c[nH]nc1C1CCCCC1: -16.51
- CN(Cc1nnc(C2CC2)o1)CC1CCCN1c1cccnn1 (configuration not stated): 15.59
- CCCN1CCCn2nc(CNC(=O)CC3CCS(=O)(=O)C3)cc2C1 (configuration not stated): -3.917

Qu. // query Percent Effect value for entry COc1cccc(CC(=O)N2CCC(c3ccn4nccc4n3)CC2)c1
Ans. 113.7

Qu. Any idea what Percent Effect was measured for Cc1cc(C)n(CC(=O)N2CCC(c3nc(C)no3)CC2)n1 ?
Ans. -3.198

Qu. Reported Percent Effect, compound COc1ccc2c(c1)CN(Cc1nc3c(cnn3C)c(=O)[nH]1)CC2 : ____
Ans. -2.019

Qu. For NC(=O)c1cc2c(nc1-c1ccc3c(c1)CCO3)CCC2 , what is its reported Percent Effect?
Ans. 1.16

Qu. Requested read-out: Percent Effect. Entry: Cc1nc(C2CCCN2CC(=O)N(Cc2ccsc2)C2CC2)no1 (configuration not stated)
Ans. -3.982

Qu. Could you share which Percent Effect value was measured for CC1CCN(C(=O)Cn2cc(I)cn2)CC1 ?
Ans. 2.364

###

system: Wolbachia pipientis; experiment: Anti-Wolbachia Cell-Based Screen; type: functional; parameters: scale not given: in the data most compounds retested in dose-response had high values; conditions: 5 µM
Among all 48,000 compounds or so, about 13,000 (27%) showed an effect of 50% or more. The list shows a part of the results.
Overview of recorded Percent Effect for various compounds

Use the examples below as a reference point.
• CSCCC(=O)N1CCCN(c2ccccc2C)CC1 = -1.705%
• CC(C)n1ccnc1C1CCN(C(=O)c2ccccc2)CC1 = 1.199%

Qu. Look at this compound and give its reported Percent Effect. O=C(c1ccccc1)N1CCCN(C(=O)c2ncncc2Cl)CC1
Ans. 22.3%

Qu. What does the data say about its Percent Effect? Entry: CS(=O)(=O)CCOCCNc1ccc(Br)cn1
Ans. -8.426%

Qu. Query (compound): CN(C)c1ccc2c(c1)CN(C(=O)c1ccco1)C2c1cnco1 (stereo not drawn) ; field requested: Percent Effect
Ans. 6.499%

Qu. Could you tell me which Percent Effect is on file for O=C(N[C@@H]1CN(c2ncccn2)C[C@@H]2CCCO[C@@H]21)c1ccnnc1.O=C(O)C(F)(F)F ?
Ans. -7.292%

Qu. Which Percent Effect value belongs to Cc1nc(C2CCCN(C(=O)c3scnc3C)C2)no1 (stereo not drawn) ?
Ans. -0.5479%

###

tested on: Wolbachia pipientis; test: Anti-Wolbachia Cell-Based Screen; type: functional; design: scale not given: in the data most compounds retested in dose-response had high values; settings: 5 µM
The campaign covered roughly 48,000 compounds. About 13,000 (27%) showed an effect of 50% or more. The list shows a part of the results.
Entries and their Percent Effect
A number alone suffices; assume %.

* CC(C)(O)CSCCNC(=O)c1cc(F)ccc1F | 5.192

Qu. Need Percent Effect, item OCC1(O)CCN(Cc2noc(-c3ccccc3)n2)CC1
Ans. 112.4

Qu. Query: Percent Effect; subject: Cc1cc(=O)c(C(=O)Nc2cccc(CCN3CCCC3)c2)c[nH]1
Ans. -5.108

Qu. Query: Percent Effect; subject: COCCN1C[C@H]2CN(Cc3cccc(OC)c3)CCN2C1=O
Ans. -3.935

Qu. Query: Percent Effect; subject: Cc1cc(O)nc(C2CCCN(Cc3ccncc3)C2)n1 (stereo unspecified)
Ans. -8.016

###

Overview of reported Percent Effect across a group of molecules:
test system: Wolbachia pipientis; experiment: Anti-Wolbachia Cell-Based Screen; format: functional; parameters: scale not given: in the data most compounds retested in dose-response had high values; details: 5 µM
Out of some 48,000 compounds screened, about 13,000 (27%) showed an effect of 50% or more. The list shows a part of the results.
Your answer should be a plain number; it is taken to be in %.

Some molecules with recorded Percent Effect:
- CC(=O)Nc1ncc(S(=O)(=O)N2CCC(C)CC2)s1: -4.256
- Cc1nc(C)n(C2CCCN(C(=O)c3ccc4c(c3)COC4)C2)n1 (stereo not drawn): -5.905

Proceed to the following item.
Qu. # query: Percent Effect | item O=C(c1cccc(N2CCCC2=O)c1)N1CCCC(n2cncn2)C1 (stereo not drawn) | system: Wolbachia pipientis
Ans. 0.04653

###

Item-by-item account of Percent Effect
system: Wolbachia pipientis; experiment: Anti-Wolbachia Cell-Based Screen; format: functional; design: scale not given: in the data most compounds retested in dose-response had high values; conditions: 5 µM
Screen size: about 48,000 compounds; about 13,000 (27%) showed an effect of 50% or more. This is one part of the list.
Kindly answer with a numeric value in %, unit omitted.

• CN1C(=O)c2ccc(NC(=O)CSc3ccc4c(c3)CCC4)cc2C1=O = 8.962
• O=C(O)c1ccccc1-c1ccc(CN2CC(O)C2)cc1 = 128.6
• COc1cccc2c1OCC(CNC(=O)CSc1nc(N)n[nH]1)C2 (stereo not drawn) = -2.891
• N[C@H]1CN(CCOc2ccc(F)cc2)C[C@@H]1C1CC1 = -23.63

Qu. For the record CN1CCCC1CNC(=O)CCCOc1ccc(F)cc1 (stereo not drawn) , what value of Percent Effect is listed for Wolbachia pipientis?
Ans. -3.981

###

test system: Wolbachia pipientis; assay: Anti-Wolbachia Cell-Based Screen; format: functional; design: scale not given: in the data most compounds retested in dose-response had high values; settings: 5 µM
In all, about 48,000 compounds went through this assay and about 13,000 (27%) showed an effect of 50% or more. Some of the results follow.
endpoint: Percent Effect (%)
Give just the number in %; leave the unit off.

* CCNc1cc2c(nn1)CCN(C(=O)C1COc3ccccc3C1)C2 (stereo not given) | 3.402
* CS(=O)(=O)N1CCOC2(CCCN(c3cnccn3)C2)C1.O=C(O)C(F)(F)F (stereo not given) | -3.383
* CSCC(C)N(C)C(=O)c1nn(-c2ccc(F)cc2C)cc1O (stereo not given) | 188.7

Qu. Given O=C(c1cn(-c2ccccc2)nn1)N1CCCC(n2cccn2)C1 (stereo not given) , state its recorded Percent Effect.
Ans. 123.4

###

system: Wolbachia pipientis; test: Anti-Wolbachia Cell-Based Screen; type: functional; parameters: scale not given: in the data most compounds retested in dose-response had high values; details: 5 µM
Out of some 48,000 compounds screened, about 13,000 (27%) showed an effect of 50% or more. Some of the results follow.
endpoint: Percent Effect (%)
// units = %; emit number, no label

These recorded examples may help you get a feel for the data.
- CCCN1CCCn2c(nc(CNC(=O)c3ccsc3)cc2=O)C1.O=C(O)C(F)(F)F: -11.31
- CNCC(=O)NC1CC(C)(C)Cc2nc(C(C)(C)C)ncc21 (stereo not drawn): 107.2
- CC(C)(C)c1ncc2c(n1)CN(C(=O)c1ccc(-n3cnnn3)cc1)C2: -15.52
- CN1CCCn2c(nc(CNC(=O)c3nccn3C)cc2=O)C1.O=C(O)C(F)(F)F.O=C(O)C(F)(F)F: -10.78
- CC(C)N1CCCn2c(nc(CNC(=O)c3nccn3C)cc2=O)C1.O=C(O)C(F)(F)F.O=C(O)C(F)(F)F: -1.312

Qu. Item under review: CC1(C)Cc2nc(C(C)(C)C)ncc2C(NC(=O)CN)C1 (stereo not drawn) . Reported Percent Effect?
Ans. 108.4

Qu. Reported Percent Effect for COCCN1CCCn2c(nc(CNS(C)(=O)=O)cc2=O)C1.O=C(O)C(F)(F)F : what is it?
Ans. 96.89

Qu. // query Percent Effect value for entry CC1(C)Cc2nc(C(C)(C)C)ncc2C(NC(=O)Cc2nnn[nH]2)C1 (stereo not drawn)
Ans. 84.56

Qu. Form field: reported Percent Effect of O=C(C1CCSCC1)N1CC[C@H]2OCC[C@@]2(COCC2CC2)C1
Ans. -16.75

Qu. // query Percent Effect value for entry Cc1cncc(NCc2ccccc2N2CCOCC2)c1
Ans. 0.5273

Qu. What value of Percent Effect has been reported for the following compound? Cc1csc(N2CCCN(C(=O)C(C)n3ccnc3)CC2)n1 (stereo not drawn)
Ans. -4.315

Qu. Which measured Percent Effect value corresponds to COC(=O)NCC(=O)NC1CC(C)(C)Cc2oc(C)cc21 (stereo not drawn) ?
Ans. -2.578

Qu. Tell me the measured Percent Effect of CC(C)(C)c1ncc2c(n1)CN(C(=O)c1ccncc1)C2 , please.
Ans. 6.547
